Hey, just so you know, these numbers are from patent US10183936B2.

- System: AD38 cells
- assayComment: Viability of AD38 cells (Promega CellTiter-Glo) at the end of compound treatment
- Type: cell-based
- testSettings: 10 μM compound, 6 days, luminescence normalized against DMSO control wells (controls being 100%)
parameter: AD38 Viability Normalized Result (CPAM/DMSO %) at 10 μM

• O=C(Nc1cncnc1)c1ccc2c(c1)NC(=O)c1cc(F)ccc1S2 [Compound 1328] = 105
• O=C(NCCc1cccnc1)c1ccc2c(c1)NC(=O)c1ccccc1S2(=O)=O [Compound 1448] = 85
• O=C(Nc1ncco1)c1ccc2c(c1)NC(=O)c1cc(F)ccc1S2 [Compound 1353] = 97
• O=C(NCCC1CCC(O)CC1)c1ccc2c(c1)NC(=O)c1ccccc1S2 (centres unmarked) [Compound 1204] = 97
• O=C(Nc1ccc(F)cc1Cl)c1ccc2c(c1)NC(=O)c1cc(F)ccc1S2 [Compound 1323] = 60
• CN(C)S(=O)(=O)c1ccc(CCNC(=O)c2ccc3c(c2)NC(=O)c2ccccc2S3)cc1 [Compound 1102] = 100
• O=C(NCc1cccnc1)c1ccc2c(c1)NC(=O)c1cc(F)ccc1S2 [Compound 1364] = 102
• CN(C)S(=O)(=O)c1ccc(CCNC(=O)c2ccc3c(c2)NC(=O)c2ccc(F)cc2S3)cc1 [Compound 1387] = 78

###

- Test system: AD38 cells
- assayComment: Viability of AD38 cells (Promega CellTiter-Glo) at the end of compound treatment
- Type: cell-based
- testSettings: 10 μM compound, 6 days, luminescence normalized against DMSO control wells (controls being 100%)
- Description: Example 56: Assay Measuring Activity of Compounds on Viral Production in and on Viability of AD38 Cells AD38 cells were then re-suspended with 10 mL of Treatment Medium and counted. […] At the end of compound treatment period cell viability was assessed using a Promega CellTiter-Glo protocol. […]
parameter: AD38 Viability Normalized Result (CPAM/DMSO %) at 10 μM

• O=C(Nc1cccc(-c2ccccc2)c1)c1ccc2c(c1)NC(=O)c1ccccc1N2Cc1ccccc1 = 100
• O=C(NCc1cncnc1)c1ccc2c(c1)NC(=O)c1ccccc1N2Cc1ccccc1 = 98
• O=C(NCCc1ccc(-n2nccn2)cc1)c1ccc2c(c1)NC(=O)c1ccccc1S2 = 102
• CN1C(=O)c2ccccc2Sc2ccc(C(=O)NCc3cncs3)cc21 = 126
• O=C(NCCc1ccccc1)Nc1ccc2c(c1)NC(=O)c1ccccc1S2 = 65
• O=C(NCCc1cncs1)c1cc2c(cc1F)Sc1ccccc1C(=O)N2 = 88
• O=C(Nc1cccc(-c2ccccc2)c1)c1ccc2c(c1)NC(=O)c1cccc(F)c1S2 = 50
• O=C(NCc1cscn1)c1ccc2c(c1)NC(=O)c1ccccc1S2 = 95

###

Listed here are molecules together with their documented AD38 Viability Normalized Result (CPAM/DMSO %) at 10 μM.
- System: AD38 cells
- assayComment: Viability of AD38 cells (Promega CellTiter-Glo) at the end of compound treatment
- Type: cell-based
- testSettings: 10 μM compound, 6 days, luminescence normalized against DMSO control wells (controls being 100%)
parameter: AD38 Viability Normalized Result (CPAM/DMSO %) at 10 μM

- O=C(NCCc1ccc(-c2ccccc2)cc1)c1cc2c(cc1F)Sc1ccccc1C(=O)N2: 80
- O=C(NCCc1cc[nH]n1)c1ccc2c(c1)NC(=O)c1ccccc1S2: 94
- NC(=O)CSc1nnc(CCNC(=O)c2ccc3c(c2)NC(=O)c2ccccc2S3)o1: 112
- O=C(Nc1ccncc1)c1ccc2c(c1)NC(=O)c1ccccc1[S+]2[O-] (centres unmarked): 117
- O=C(Nc1nc2ccccc2o1)c1ccc2c(c1)NC(=O)c1cc(F)ccc1S2: 70
- O=C(NCCc1ccc(-c2ccccc2)cc1)c1ccc2c(c1)NC(=O)c1c(F)cccc1S2: 106
- O=C(NCc1cncnc1)c1ccc2c(c1)NC(=O)c1ccccc1[S+]2[O-] (centres unmarked): 100
- O=C(NCCc1ccc(O)cc1)c1ccc2c(c1)NC(=O)c1ccccc1S2: 106
